System: SegB (SegBSs) (Saccharolobus (Sulfolobus) solfataricus P2), ORF:2e81311c
Sequence: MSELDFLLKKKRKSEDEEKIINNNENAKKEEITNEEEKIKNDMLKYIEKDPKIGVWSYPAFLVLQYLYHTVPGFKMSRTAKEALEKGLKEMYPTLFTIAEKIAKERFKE
Assay: DNase I footprinting
Settings: EMSA and footprint: 10 mM Tris-HCl pH 7.5, 50 mM KCl, 1 mM DTT, 5 mM MgCl2, 2.5% glycerol, 0.05% NP-40, 1 ug poly(dI-dC), 37 C, 20 min, DNA 1-5 nM
Test Readout: binding

Ask: Quote binding reported for CTCAGCTGTCGGTAATACGATTTAGAAAGGATGAAATCGCTTATTCAATTTACTCTAATAAGCGACTAGAGTCTATAAGAAACACTCTAGAGTATTCTACCATAGAGGGAGAAGGCTTATTCAATGGATGCATTCTATGCGGTAAATGTGTTAGTGTTTGCCCTTACGGTAAACAAACTAATGACGTATTCCATACTCCT (double strand) [peak B-3 fragment] please.
Reply: binds
